As shown below, each of these binders has a reported Glucagon IC50 value.
# EXPERIMENTAL_SYSTEM: glucagon receptor (UniProt P47871 26-477, limits assumed)
# Sequence (P47871 26-477 limits assumed): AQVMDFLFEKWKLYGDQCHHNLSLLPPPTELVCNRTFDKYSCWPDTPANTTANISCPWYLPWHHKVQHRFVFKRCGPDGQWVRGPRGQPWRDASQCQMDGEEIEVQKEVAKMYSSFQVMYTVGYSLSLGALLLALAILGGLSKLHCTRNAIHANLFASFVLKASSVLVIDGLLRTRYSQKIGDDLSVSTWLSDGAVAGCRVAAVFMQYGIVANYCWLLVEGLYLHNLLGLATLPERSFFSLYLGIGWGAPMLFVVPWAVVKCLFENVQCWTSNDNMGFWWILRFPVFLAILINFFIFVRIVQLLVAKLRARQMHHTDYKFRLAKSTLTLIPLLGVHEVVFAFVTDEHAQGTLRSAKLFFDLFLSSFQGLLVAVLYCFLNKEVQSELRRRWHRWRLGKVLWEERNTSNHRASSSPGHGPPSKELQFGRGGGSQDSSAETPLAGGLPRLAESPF
# METHOD_SUMMARY: cell-based or functional assay
Bridge positions count the residues as written; N and C are the ends. Ends that are not written are not given here. PLA = phenyl lactic acid
PROPERTY_LABEL: Glucagon IC50 (nM)

{"BINDER": "FTSEYSKYLDERRAQDFVQWLMNTGPSSGAPPPS [E9, K12, E16 glucagon(6-39) (Table 13, peptide 1)]", "PROPERTY_LABEL": "Glucagon IC50", "DATA_VALUE": 762}
{"BINDER": "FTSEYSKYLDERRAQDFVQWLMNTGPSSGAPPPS (lactam 7-11) [E9, K12E16(lactam) glucagon(6-39) (Table 13, peptide 2)]", "PROPERTY_LABEL": "Glucagon IC50", "DATA_VALUE": 2010}
{"BINDER": "FTSEYSKYLDERRAKDFVQWLMNTGPSSGAPPPS (lactam 11-15) [E9, E16K20(lactam) glucagon(6-39) (Table 13, peptide 3)]", "PROPERTY_LABEL": "Glucagon IC50", "DATA_VALUE": 42}
{"BINDER": "{PLA}-TSDYSKYLDERRAKDFVQWLMDT (lactam 10-14) [[PLA6, D9, E16K20(lactam), D28]G(6-29)]", "PROPERTY_LABEL": "Glucagon IC50", "DATA_VALUE": 6}
